Please go through the items and note down their viability.
assayInfo: MRP1 drug-resistance reversers in H69AR cells – cell-based, doxorubicin co-treatment, primary screen (AID 602)
experimentalConditions: H69AR cells, CellTiter-Glo, 72 h; measured here: cytotoxicity without doxorubicin; at 10 µM
About 35 (0.04%) of roughly 85,000 compounds were called active. This is one part of a sample in which actives are shown more often than they occur.
Report field: quantity (unit follows the number).

O=C(Nc1ccc(Cl)cc1)c1cc2nc(C3CC3)cc(C(F)(F)F)n2n1    79.5%
COC(=O)C1=C(Nc2ccc(OC)cc2)C=C(C)C(C(=O)OC)C1c1ccc(C)cc1 (stereo unspecified)    55.6%
O=C(c1cccc(F)c1)N1CCC(O)(c2cccnc2)CC1    88.1%
Cc1ccc(CN(N=Nc2nonc2N)c2nonc2N)c(C)c1    79.6%
O=C(c1ccc2c(c1)OCO2)N1CCN(C(=O)c2ccco2)CC1    91.9%

The following molecules each have a reported value; give each one's viability.
1. Cn1c(=O)c2c(SCC(=O)N3CCOCC3)nc(C3CC3)nc2n(C)c1=O
2. O=C(c1ccccc1Oc1ccccc1)N1CCN(c2ccc(F)cc2)CC1

Result string:
81.8%
100%

For every record below, what is its viability?
1. CCN(CC)CCn1c(=S)[nH]c2ncccc2c1=O
2. O=C1CC(Sc2ncn[nH]2)C(=O)N1c1ccccc1 (stereo unspecified)
3. CC/C(O)=N\S(=O)(=O)c1ccc(N=NN(C)C)cc1
4. CCN(CC)CCNC(=O)CCCCCn1c(=O)[nH]c2cc(C(=O)OC)ccc2c1=O

Result string:
1. 101%
2. 96.1%
3. 85.7%
4. 102%

----------
Kindly state viability for each of the entries shown.
assayInfo: MRP1 drug-resistance reversers in H69AR cells – cell-based, doxorubicin co-treatment, primary screen (AID 602)
experimentalConditions: H69AR cells + 2 uM doxorubicin, CellTiter-Glo, 72 h; measured here: viability with 2 uM doxorubicin; at 10 µM; stronger effect = lower value
About 35 (0.04%) of roughly 85,000 compounds were called active. Many of the other results were omitted from the sample, so actives are more common in it than they were.
Give bare numbers, in %.

For the 8 compounds below, give their viability values.
1. O=c1cc(CN2CCN(c3cccc(Cl)c3)CC2)c2cc3c(cc2o1)CCCC3
2. CCNCCC(=O)N1c2ccccc2Sc2ccc(NC(=O)OCC)cc21
3. COC(=O)/C(NC(C)=O)=C(\C)c1ccc(Cl)cc1
4. COCCCNC(=O)CN1CCN(Cc2ccccc2Cl)C1=O
5. CCCC1NC(=O)NC(C)=C1C(=O)OCC (stereo unspecified)
6. CCOC(=O)/C(C#N)=C\c1c(C)cc(C)c(COC(C)=O)c1C
7. COC(=O)C1=C(C(=O)OC)C2(OC1c1ccc(Br)cc1)C(=O)c1ccccc1C2=O (stereo unspecified)
8. CCN1C(=O)/C(=C2/Sc3ccc(OC)cc3N2C)SC1=Nc1ccc(C)cc1

Result string:
1: 82.6; 2: 69.7; 3: 118; 4: 86.8; 5: 96.9; 6: 89.3; 7: 94; 8: 70.6

Batch: viability for all items listed.
1. CC(C)(C)c1ccc(C(=O)NNC(=O)Cc2ccccc2)cc1
2. CCc1ccc2c(c1)C1(NN=C(c3ccccc3)S1)C(=O)N2 (stereo unspecified)
3. Cc1ccc(-n2c(SCC(=O)NCc3ccc4c(c3)OCO4)nnc2-c2cccnc2)c(C)c1

Result string:
[85.9, 34, 57.5]

----------
assayInfo: MRP1 drug-resistance reversers in H69AR cells – cell-based, doxorubicin co-treatment, primary screen (AID 602)
experimentalConditions: H69AR cells, CellTiter-Glo, 72 h; measured here: cytotoxicity without doxorubicin; at 10 µM
The whole screen tested about 85,000 compounds, of which about 35 (0.04%) were called active. The list comes from a sample in which actives are over-represented; it also holds close analogues and randomly drawn compounds.
propertyLabel: viability (%)
Answers are plain numbers, in %.

COCCn1c(C)cc(C2=NNC(=Nc3ccc(F)cc3)SC2)c1C    88.2
CC(C)(CNC(=O)c1cc(=O)[nH]c2ccccc12)N1CCOCC1    101
COc1ccc(-n2nc(C(=O)NCC(=O)Nc3cccc(C)n3)c3ccccc3c2=O)cc1    74.2
CCN(CC(=O)Nc1ccccc1OC)C(=O)Cn1cnc2ccccc2c1=O    92.7

Return reported viability values for all items listed beneath this line.
1. COC(=O)CNC(=O)c1ccccc1F
2. Cc1[nH]n(-c2ccc([N+](=O)[O-])cc2)c(=O)c1C=NCCN1CCN(C(=O)c2ccccc2F)CC1
3. CCOC(=O)C1C(=O)NCC1c1ccccc1 (stereo unspecified)
4. COc1ccc(Nc2nc(=O)[nH]nc2C)cc1
5. CCN(c1ccccc1)S(=O)(=O)c1ccc(NC(=O)C(C)(C)C)cc1

Result string:
85.2
39.4
99.9
95.5
34.8

Working through the 2 compounds below one at a time, give viability for each.
1. CCN1C(=O)/C(=C2/Sc3ccc(OC)cc3N2C)SC1=Nc1ccc(C)cc1
2. O=C(NC1CCCC1)C(c1ccccn1)N(C(=O)c1csnn1)C1CCCC1 (stereo unspecified)

Result string:
66.1
81.2

----------
assayInfo: MRP1 drug-resistance reversers in H69AR cells – cell-based, doxorubicin co-treatment, primary screen (AID 602);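 for differential viability (reversal): larger differential means the compound sensitizes cells more to doxorubicin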
experimentalConditions: H69AR cells + 2 uM doxorubicin, CellTiter-Glo, 72 h; at 10 µM; stronger effect = higher value
Hit rate of the full screen: of about 85,000 compounds, about 35 (0.04%) were called active. This excerpt belongs to a sample that is enriched for actives.
propertyLabel: differential viability (reversal) (%)
Give bare numbers, in %.

CCN(c1ccccc1)S(=O)(=O)c1ccc(NC(=O)C(C)(C)C)cc1    -29.8
O=C(Nc1ccc(F)c(Cl)c1)C1CCN(S(=O)(=O)c2cccnc2)CC1    1.44
C=CCc1ccc(OCCOc2cccc(/C=N/n3cnnc3)c2)c(OC)c1    9.09
Cc1nc2ccccc2n1C(=O)N1CCOCC1    -2.57
COc1ccc(-n2c(C)csc2=S)cc1    -2.75
CC(C)(CNC(=O)c1cc(=O)[nH]c2ccccc12)N1CCOCC1    3.32

Look at each compound and report its differential viability (reversal).
1. COc1cc(OC)nc(NC(=O)CCl)n1
2. CCc1ccc2c(c1)C1(NN=C(c3ccccc3)S1)C(=O)N2 (configuration not stated)
3. CCCCN1C(=O)/C(=C2/C=CC=CN2C)SC1=S
4. COC(=O)c1ccccc1NC(=O)CSc1nnnn1C
5. Cc1[nH]n(-c2cccc(Cl)c2)c(=O)c1/C=N/n1c(C)nc2ccccc2c1=O
6. CCOC(=O)c1c(N)sc(C(C)=O)c1C

Result string:
4.9
-18.7
1.69
-8.64
-32.9
11.1

----------
assayInfo: MRP1 drug-resistance reversers in H69AR cells – cell-based, doxorubicin co-treatment, primary screen (AID 602);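 for differential viability (reversal): larger differential means the compound sensitizes cells more to doxorubicin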
experimentalConditions: H69AR cells + 2 uM doxorubicin, CellTiter-Glo, 72 h; at 10 µM; stronger effect = higher value
The whole screen tested about 85,000 compounds, of which about 35 (0.04%) were called active. Many of the other results were omitted from the sample, so actives are more common in it than they were.
propertyLabel: differential viability (reversal) (%)
Numbers only, in %.

Cc1ccc(C(=O)N/N=C/c2sc(=O)n(Cc3cccc(C(=O)O)c3)c2Cl)cc1    -5.62
O=C(NCc1ccco1)c1ccc(Cn2c(=O)c3sccc3n(Cc3ccc(F)cc3)c2=O)cc1    11.8

I have 4 compounds here; please give me differential viability (reversal) for each one.
1. CC1CCN(S(=O)(=O)c2ccc(S(=O)(=O)NCc3ccco3)cc2)CC1
2. CC(=O)NC1(c2cccc(F)c2)CCN(CC(=O)NC(C)C)CC1
3. CC(CO)N1CCS(=O)(=O)CC1 (stereo not drawn)
4. Cc1ccc(NC(=S)NC(NC(=O)Cc2cccc3ccccc23)C(Cl)(Cl)Cl)cc1 (stereo not drawn)

Result string:
[-17.8, -7.86, 9.77, 0.19]

----------
assayInfo: MRP1 drug-resistance reversers in H69AR cells – cell-based, doxorubicin co-treatment, primary screen (AID 602)
experimentalConditions: H69AR cells + 2 uM doxorubicin, CellTiter-Glo, 72 h; measured here: viability with 2 uM doxorubicin; at 10 µM; stronger effect = lower value
Hit rate of the full screen: of about 85,000 compounds, about 35 (0.04%) were called active. This excerpt belongs to a sample that is enriched for actives.
Threshold 80%. viability below it: Fulfilled. viability at it or above: Not fulfilled.

Observe how each entry below is paired with its result.
CCCC(=O)C1CCN(Cc2ccccc2)CC1    Not fulfilled
CCN(CC)C(=O)CN(c1cccc(OC)c1)S(=O)(=O)c1ccc(C)cc1    Not fulfilled
CCOc1nc(NCCN2CCOCC2)nc(Nc2ccc(C)cc2)n1    Fulfilled
Cc1cc(O)cc(O)c1C(=O)Cc1cnn(-c2ccccc2)c1    Fulfilled
COc1ccc(NC(=O)C2C3C=CC(C3)C2C(=O)NCc2ccccn2)c(OC)c1 (centres undefined)    Fulfilled

Query string: Is viability strictly under 80% for the entry CCOC(=O)C(C)Sc1nc2ccccc2c(=O)n1CC1CCCCC1 (centres undefined) ?
Result string: Fulfilled
